Quick record of IC50 values for Beta-glucuronidase (Bos taurus, UniProt A3KMY8).

Task: Supply reported IC50 belonging to this compound: Oc1cccc(-c2nc3ccccc3s2)c1
Output: 36.1 µM

Task: Specify IC50 for Oc1cc(O)c(-c2nc3ccccc3s2)cc1O and stop.
Output: 2.26 µM
